B1: ANKRD17 (parent)
chain: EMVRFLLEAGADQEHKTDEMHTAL

- Variants of: B1
- protocol notes: protein stability index of a GFP-peptide fusion (GPS, HEK-293T) (PSI 1-6); higher = more stable;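 note: lentivirally expressed fusions sorted by FACS into six bins by GFP to DsRed ratio, PSI derived from sequencing read proportions per bin multiplied by bin number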
- recorded conditions: c terminus: a fixed tail appended
Label rule, in plain words: protein stability index of 3 and up is Y, under 3 is N.

[
  {
    "changes": "L24H",
    "label class": "N"
  },
  {
    "changes": "H15F",
    "label class": "N"
  },
  {
    "changes": "E1A",
    "label class": "N"
  },
  {
    "changes": "A23F",
    "label class": "N"
  },
  {
    "changes": "L6A",
    "label class": "Y"
  },
  {
    "changes": "H21F",
    "label class": "N"
  },
  {
    "changes": "D18W",
    "label class": "N"
  },
  {
    "changes": "H15R",
    "label class": "N"
  },
  {
    "changes": "M20T",
    "label class": "Y"
  },
  {
    "changes": "L6W",
    "label class": "Y"
  },
  {
    "changes": "D18R",
    "label class": "N"
  },
  {
    "changes": "Q13R",
    "label class": "N"
  },
  {
    "changes": "T22I",
    "label class": "N"
  },
  {
    "changes": "M20C",
    "label class": "N"
  },
  {
    "changes": "M20S",
    "label class": "Y"
  },
  {
    "changes": "A9C",
    "label class": "N"
  },
  {
    "changes": "V3A",
    "label class": "Y"
  },
  {
    "changes": "Q13W",
    "label class": "N"
  },
  {
    "changes": "R4L",
    "label class": "N"
  },
  {
    "changes": "H15S",
    "label class": "N"
  },
  {
    "changes": "L24P",
    "label class": "N"
  },
  {
    "changes": "H21R",
    "label class": "Y"
  },
  {
    "changes": "E1F",
    "label class": "N"
  },
  {
    "changes": "L6N",
    "label class": "Y"
  },
  {
    "changes": "G10L",
    "label class": "N"
  },
  {
    "changes": "M2Q",
    "label class": "Y"
  },
  {
    "changes": "V3M",
    "label class": "N"
  },
  {
    "changes": "K16Q",
    "label class": "N"
  },
  {
    "changes": "A11I",
    "label class": "N"
  },
  {
    "changes": "L24V",
    "label class": "N"
  },
  {
    "changes": "M20Y",
    "label class": "N"
  },
  {
    "changes": "E14H",
    "label class": "N"
  },
  {
    "changes": "K16Y",
    "label class": "N"
  },
  {
    "changes": "D18F",
    "label class": "N"
  },
  {
    "changes": "R4T",
    "label class": "Y"
  },
  {
    "changes": "G10W",
    "label class": "N"
  },
  {
    "changes": "L6S",
    "label class": "Y"
  },
  {
    "changes": "L6P",
    "label class": "Y"
  },
  {
    "changes": "E8Q",
    "label class": "N"
  },
  {
    "changes": "R4V",
    "label class": "N"
  },
  {
    "changes": "G10P",
    "label class": "Y"
  },
  {
    "changes": "H15D",
    "label class": "Y"
  },
  {
    "changes": "G10H",
    "label class": "N"
  },
  {
    "changes": "E8K",
    "label class": "N"
  },
  {
    "changes": "M20L",
    "label class": "Y"
  },
  {
    "changes": "V3N",
    "label class": "Y"
  },
  {
    "changes": "E14S",
    "label class": "N"
  },
  {
    "changes": "L7C",
    "label class": "Y"
  },
  {
    "changes": "E14G",
    "label class": "N"
  },
  {
    "changes": "L7V",
    "label class": "Y"
  },
  {
    "changes": "D18M",
    "label class": "N"
  },
  {
    "changes": "L24Q",
    "label class": "Y"
  },
  {
    "changes": "D12I",
    "label class": "N"
  },
  {
    "changes": "H21Q",
    "label class": "Y"
  },
  {
    "changes": "G10M",
    "label class": "N"
  },
  {
    "changes": "H21T",
    "label class": "N"
  },
  {
    "changes": "M20D",
    "label class": "Y"
  },
  {
    "changes": "D18K",
    "label class": "N"
  },
  {
    "changes": "E8S",
    "label class": "N"
  },
  {
    "changes": "D12E",
    "label class": "N"
  },
  {
    "changes": "R4P",
    "label class": "Y"
  },
  {
    "changes": "D18A",
    "label class": "N"
  },
  {
    "changes": "D12R",
    "label class": "N"
  },
  {
    "changes": "A11G",
    "label class": "Y"
  },
  {
    "changes": "F5S",
    "label class": "Y"
  },
  {
    "changes": "K16E",
    "label class": "N"
  },
  {
    "changes": "T22P",
    "label class": "N"
  },
  {
    "changes": "M2I",
    "label class": "N"
  },
  {
    "changes": "T17Q",
    "label class": "N"
  },
  {
    "changes": "G10C",
    "label class": "N"
  },
  {
    "changes": "G10R",
    "label class": "N"
  },
  {
    "changes": "H21Y",
    "label class": "N"
  },
  {
    "changes": "E19M",
    "label class": "N"
  },
  {
    "changes": "M20P",
    "label class": "Y"
  },
  {
    "changes": "D18L",
    "label class": "N"
  },
  {
    "changes": "L7Y",
    "label class": "Y"
  },
  {
    "changes": "E19A",
    "label class": "N"
  },
  {
    "changes": "L6H",
    "label class": "Y"
  },
  {
    "changes": "G10N",
    "label class": "N"
  },
  {
    "changes": "L6M",
    "label class": "Y"
  },
  {
    "changes": "K16V",
    "label class": "Y"
  },
  {
    "changes": "H21I",
    "label class": "N"
  },
  {
    "changes": "R4S",
    "label class": "Y"
  }
]
